experiment: Stability of the ginsenosides in rat plasma (QC samples); type: in vitro ADME; settings: rat plasma, high QC (911.4 Rb1, 400.0 Rb2, 312.2 Rd, 630.8 Re ng/mL); 1 month at −80°C
Each item that follows carries a reported Recovery (%) Short term.

compound	Recovery (%) Short term
CC(C)=CCC[C@](C)(O[C@@H]1O[C@H](CO)[C@@H](O)[C@H](O)[C@H]1O)[C@H]1CC[C@]2(C)[C@@H]1[C@H](O)C[C@@H]1[C@@]3(C)CC[C@H](O[C@@H]4O[C@H](CO)[C@@H](O)[C@H](O)[C@H]4O[C@@H]4O[C@H](CO)[C@@H](O)[C@H](O)[C@H]4O)C(C)(C)[C@@H]3CC[C@]12C	101.27%
CC(C)=CCC[C@](C)(O[C@@H]1O[C@H](CO)[C@@H](O)[C@H](O)[C@H]1O)[C@H]1CC[C@]2(C)[C@@H]1[C@H](O)C[C@@H]1[C@@]3(C)CC[C@H](O)C(C)(C)[C@@H]3[C@@H](O[C@@H]3O[C@H](CO)[C@@H](O)[C@H](O)[C@H]3O[C@@H]3O[C@@H](C)[C@H](O)[C@@H](O)[C@H]3O)C[C@]12C	101.73%
CC(C)=CCC[C@](C)(O[C@@H]1O[C@H](CO[C@@H]2O[C@H](CO)[C@@H](O)[C@H](O)[C@H]2O)[C@@H](O)[C@H](O)[C@H]1O)[C@H]1CC[C@]2(C)[C@@H]1[C@H](O)C[C@@H]1[C@@]3(C)CC[C@H](O[C@@H]4O[C@H](CO)[C@@H](O)[C@H](O)[C@H]4O[C@@H]4O[C@H](CO)[C@@H](O)[C@H](O)[C@H]4O)C(C)(C)[C@@H]3CC[C@]12C	101.65%

Consider the record given below.
Please fill in: Recovery (%) Short term reported for CC(C)=CCC[C@](C)(O[C@@H]1O[C@H](CO[C@@H]2OC[C@H](O)[C@H](O)[C@H]2O)[C@@H](O)[C@H](O)[C@H]1O)[C@H]1CC[C@]2(C)[C@@H]1[C@H](O)C[C@@H]1[C@@]3(C)CC[C@H](O[C@@H]4O[C@H](CO)[C@@H](O)[C@H](O)[C@H]4O[C@@H]4O[C@H](CO)[C@@H](O)[C@H](O)[C@H]4O)C(C)(C)[C@@H]3CC[C@]12C = 98.74%

###

experiment: Stability of the ginsenosides in rat plasma (QC samples); format: in vitro ADME; settings: rat plasma, low QC (7.2 Rb1, 3.2 Rb2, 2.4 Rd, 5.0 Re ng/mL); three freeze-thaw cycles at −80°C
Reported Re (%) Freeze-thaw cycles values for the following compounds.
# unit: % | format: bare number

Worked cases, answers included:
compound	Re (%) Freeze-thaw cycles
CC(C)=CCC[C@](C)(O[C@@H]1O[C@H](CO[C@@H]2OC[C@H](O)[C@H](O)[C@H]2O)[C@@H](O)[C@H](O)[C@H]1O)[C@H]1CC[C@]2(C)[C@@H]1[C@H](O)C[C@@H]1[C@@]3(C)CC[C@H](O[C@@H]4O[C@H](CO)[C@@H](O)[C@H](O)[C@H]4O[C@@H]4O[C@H](CO)[C@@H](O)[C@H](O)[C@H]4O)C(C)(C)[C@@H]3CC[C@]12C	−9.69
CC(C)=CCC[C@](C)(O[C@@H]1O[C@H](CO)[C@@H](O)[C@H](O)[C@H]1O)[C@H]1CC[C@]2(C)[C@@H]1[C@H](O)C[C@@H]1[C@@]3(C)CC[C@H](O[C@@H]4O[C@H](CO)[C@@H](O)[C@H](O)[C@H]4O[C@@H]4O[C@H](CO)[C@@H](O)[C@H](O)[C@H]4O)C(C)(C)[C@@H]3CC[C@]12C	−11.93

Okay, next one:
Record CC(C)=CCC[C@](C)(O[C@@H]1O[C@H](CO)[C@@H](O)[C@H](O)[C@H]1O)[C@H]1CC[C@]2(C)[C@@H]1[C@H](O)C[C@@H]1[C@@]3(C)CC[C@H](O)C(C)(C)[C@@H]3[C@@H](O[C@@H]3O[C@H](CO)[C@@H](O)[C@H](O)[C@H]3O[C@@H]3O[C@@H](C)[C@H](O)[C@@H](O)[C@H]3O)C[C@]12C , field Re (%) Freeze-thaw cycles: 7.33

All values here come from paper PMC6875038.
